- Tested on: Rattus norvegicus
- assay notes: Relative potency of compound was measured in anesthetized rats after ip administration
- Assay type: functional
value kind: Relative potency
Numbers only.

Guide cases for Relative potency, answers given:
| compound structure string | target of assay | test result |
| --- | --- | --- |
| CCc1nccn1-c1ccc(NN)nn1 | Rattus norvegicus | 1.43 |
| Cc1ccc(C)n1-c1ccc(NN)nn1.Cl | Rattus norvegicus | 0.06 |
| NNc1ccc(-n2ccc3ccccc32)nn1 | Rattus norvegicus | 0.22 |

Provide reported Relative potency for each item, in the same order as listed.
1. NNc1ccc(-n2cncn2)nn1
2. NNc1ccc(-n2ccnc2)nn1
3. Cc1nccn1-c1ccc(NN)nn1

Out:
1: 0.17; 2: 0.17; 3: 2.75

# batch: return Relative potency for each of the 2 molecules below
1. NNc1ccc(-c2cccs2)nn1
2. NNc1ccc(-c2ccc(Cl)s2)nn1

Out:
[1.08, 0.19]

From: ChEMBL document CHEMBL1121897
